molecular target: 11β-hsd-1 enzyme (Homo sapiens); experiment: 11β-hsd-1 enzyme assay, percentage of inhibition (3H-cortisone to cortisol, radio-HPLC); assay type: biochemical; details: 0.1 uM; read-out: % inh @ 0.1 uM
Sequence (P28845 whole entry, species assumed): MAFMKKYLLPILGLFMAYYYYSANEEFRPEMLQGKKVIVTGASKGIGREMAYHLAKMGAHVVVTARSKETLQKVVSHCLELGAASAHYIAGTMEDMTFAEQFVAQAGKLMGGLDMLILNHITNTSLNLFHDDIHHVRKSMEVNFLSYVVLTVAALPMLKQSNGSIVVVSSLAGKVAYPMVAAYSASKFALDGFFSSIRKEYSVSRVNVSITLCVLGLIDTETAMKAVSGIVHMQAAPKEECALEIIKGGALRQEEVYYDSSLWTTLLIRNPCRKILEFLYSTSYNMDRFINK
Output Fulfilled for inhibition at 0.1 µM not less than 20%; output Not fulfilled otherwise.

Cc1cccc(NS(=O)(=O)c2ccc(C#N)cc2)n1	Fulfilled
Cc1cc(C)nc(NS(=O)(=O)c2cccc(Cl)c2C)c1	Not fulfilled
Cc1cccc(NS(=O)(=O)c2ccccc2C(F)(F)F)n1	Not fulfilled

Please tell me: is the compound Cc1cccc(NS(=O)(=O)c2ccc(-c3ccccc3)cc2C)n1 at or over 20% in terms of inhibition at 0.1 µM?
Fulfilled

Please tell me: is the compound Cc1cccc(N(C)S(=O)(=O)c2ccc(-c3ccc(C#N)cc3)cc2)n1 at or over 20% in terms of inhibition at 0.1 µM?
Not fulfilled

Please tell me: is the compound COc1ccc(-c2ccc(S(=O)(=O)Nc3cccc(C)n3)c(C)c2)cc1F at or over 20% in terms of inhibition at 0.1 µM?
Fulfilled

Please tell me: is the compound Cc1c(Cl)cccc1S(=O)(=O)Nc1cccc(CC(=O)N(C)C(C)C)n1 at or over 20% in terms of inhibition at 0.1 µM?
Not fulfilled

Please tell me: is the compound CCc1ccc(-c2ccc(S(=O)(=O)Nc3cccc(C)n3)c(C)c2)cc1 at or over 20% in terms of inhibition at 0.1 µM?
Fulfilled
